- system.under.test: METTL3/METTL14 (Homo sapiens)
- Sequence (Q86U44 whole entry, species assumed): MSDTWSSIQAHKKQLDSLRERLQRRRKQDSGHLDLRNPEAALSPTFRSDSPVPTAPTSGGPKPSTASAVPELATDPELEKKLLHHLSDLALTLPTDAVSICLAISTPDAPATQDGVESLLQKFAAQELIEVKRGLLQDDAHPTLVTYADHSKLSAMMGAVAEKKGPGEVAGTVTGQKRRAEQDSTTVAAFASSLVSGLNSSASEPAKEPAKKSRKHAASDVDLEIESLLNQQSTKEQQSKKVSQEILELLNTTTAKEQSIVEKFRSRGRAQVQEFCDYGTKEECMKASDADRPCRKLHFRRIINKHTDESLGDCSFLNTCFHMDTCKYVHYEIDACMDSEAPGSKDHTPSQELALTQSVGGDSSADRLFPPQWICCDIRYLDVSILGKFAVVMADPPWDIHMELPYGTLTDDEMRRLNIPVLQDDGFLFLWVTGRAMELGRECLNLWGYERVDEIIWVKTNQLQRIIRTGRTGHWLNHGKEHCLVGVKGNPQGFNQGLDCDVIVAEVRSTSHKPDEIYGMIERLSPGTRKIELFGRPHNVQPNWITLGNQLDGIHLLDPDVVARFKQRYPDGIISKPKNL
- Sequence (Q9HCE5 whole entry partner, species assumed): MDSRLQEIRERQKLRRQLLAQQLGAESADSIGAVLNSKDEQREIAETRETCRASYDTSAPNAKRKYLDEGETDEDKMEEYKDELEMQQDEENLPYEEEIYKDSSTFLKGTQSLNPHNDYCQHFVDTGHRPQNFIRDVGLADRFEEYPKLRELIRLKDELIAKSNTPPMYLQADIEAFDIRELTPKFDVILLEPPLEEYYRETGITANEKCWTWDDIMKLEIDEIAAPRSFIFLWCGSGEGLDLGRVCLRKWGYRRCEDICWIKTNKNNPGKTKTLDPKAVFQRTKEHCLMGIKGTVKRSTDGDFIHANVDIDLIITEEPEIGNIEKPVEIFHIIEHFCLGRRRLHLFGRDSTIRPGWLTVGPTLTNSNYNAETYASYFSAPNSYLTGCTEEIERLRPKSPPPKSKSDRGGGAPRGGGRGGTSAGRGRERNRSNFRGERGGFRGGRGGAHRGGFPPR
- test.summary: METTL3-14 standard enzyme assay (3H-SAM flashplate)
- study.conditions: Table 4; METTL3 biochemical assay
Recorded measurements of IC50, one per entry
reported.endpoint: IC50

[[record]]
compound_structure_string = "Cn1ccc(-c2cn([C@@H]3O[C@H](C(=O)NCc4cc(F)cc(F)c4)[C@@H](O)[C@H]3O)c3ncnc(N)c23)n1"
reported_endpoint = "IC50"
assay_value = "100 to 1000 nM"

[[record]]
compound_structure_string = "Cn1ccc(-c2cn([C@@H]3O[C@H](C(=O)Nc4ccc5c(c4)NC(=O)CC5)[C@@H](O)[C@H]3O)c3ncnc(N)c23)n1"
reported_endpoint = "IC50"
assay_value = "100 to 1000 nM"

[[record]]
compound_structure_string = "Cc1ccc(NC(=O)[C@H]2O[C@@H](n3cc(-c4ccn(C)n4)c4c(N)ncnc43)[C@H](O)[C@@H]2O)cc1Cl"
reported_endpoint = "IC50"
assay_value = "≥ 1000 nM"

[[record]]
compound_structure_string = "Cn1ccc(-c2cn([C@@H]3O[C@H](C(=O)Nc4cccc(N5CCOCC5)c4)[C@@H](O)[C@H]3O)c3ncnc(N)c23)n1"
reported_endpoint = "IC50"
assay_value = "≥ 1000 nM"

[[record]]
compound_structure_string = "COc1ccc(NC(=O)[C@H]2O[C@@H](n3cc(-c4ccn(C)n4)c4c(N)ncnc43)[C@H](O)[C@@H]2O)cc1Cl"
reported_endpoint = "IC50"
assay_value = "10 to 100 nM"

